- Experimental Target: Protein kinase C alpha type (Homo sapiens); further: in other assays of this panel Not Active means under 50% inhibition at 10 µM;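 further: inhibition of PKCalpha kinase activity measured in an enzyme assay with histone as the phosphorylation substrate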
- Assay type: cell-based
- Measurement Parameters: sf9
Readout Label: IC50

Worked cases, answers included:
# Compound, IC50
data = [
    ("NCC(CC(=O)O)c1ccc(Cl)cc1 (stereo not given) [BACLOFEN]", "Not Active"),
    ("COc1ccc(Cl)cc1C(=O)NCCc1ccc(S(=O)(=O)NC(=O)NC2CCCCC2)cc1 [GLYBURIDE]", "Not Active"),
    ("CNCCCC12CCC(c3ccccc31)c1ccccc12 [MAPROTILINE]", "Not Active"),
    ("CC(C)(C#N)c1cc(Cn2cncn2)cc(C(C)(C)C#N)c1 [ANASTROZOLE]", "Not Active"),
    ("O=C(O)CO [GLYCOLIC ACID]", "Not Active"),
    ("CCOC(=O)C1=C(C)NC(C)=C(C(=O)OCC)C1c1ccccc1/C=C/C(=O)OC(C)(C)C [LACIDIPINE]", "Not Active"),
    ("CC(N)C12CC3CC(CC(C3)C1)C2 (stereo not given) [RIMANTADINE]", "Not Active"),
    ("C#C[C@]1(O)CC[C@H]2[C@@H]3CCC4=CC(=O)CC[C@@H]4[C@H]3CC[C@@]21C [NORETHINDRONE]", "Not Active"),
]

Form field IC50, entry CCOc1cc(N)c(Cl)cc1C(=O)NCC1CN(Cc2ccc(F)cc2)CCO1 (stereo not given) [MOSAPRIDE] : Not Active

Lab note: "c1ccc(Cn2ccnc2)cc1" gave IC50 of Not Active
